These data points were gathered from patent US8507498B2.

Molecular target: CDK1/CycB (Homo sapiens)
Sequence (P06493 whole entry, species assumed): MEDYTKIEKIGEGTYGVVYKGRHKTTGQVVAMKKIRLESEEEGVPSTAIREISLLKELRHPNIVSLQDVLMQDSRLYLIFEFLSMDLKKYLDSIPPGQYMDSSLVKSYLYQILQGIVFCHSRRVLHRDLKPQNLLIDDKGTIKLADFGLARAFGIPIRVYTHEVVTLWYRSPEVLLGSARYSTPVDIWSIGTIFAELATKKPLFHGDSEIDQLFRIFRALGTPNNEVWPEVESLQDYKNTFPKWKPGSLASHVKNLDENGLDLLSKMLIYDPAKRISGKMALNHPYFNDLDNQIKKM
Sequence (P14635 whole entry partner, species assumed): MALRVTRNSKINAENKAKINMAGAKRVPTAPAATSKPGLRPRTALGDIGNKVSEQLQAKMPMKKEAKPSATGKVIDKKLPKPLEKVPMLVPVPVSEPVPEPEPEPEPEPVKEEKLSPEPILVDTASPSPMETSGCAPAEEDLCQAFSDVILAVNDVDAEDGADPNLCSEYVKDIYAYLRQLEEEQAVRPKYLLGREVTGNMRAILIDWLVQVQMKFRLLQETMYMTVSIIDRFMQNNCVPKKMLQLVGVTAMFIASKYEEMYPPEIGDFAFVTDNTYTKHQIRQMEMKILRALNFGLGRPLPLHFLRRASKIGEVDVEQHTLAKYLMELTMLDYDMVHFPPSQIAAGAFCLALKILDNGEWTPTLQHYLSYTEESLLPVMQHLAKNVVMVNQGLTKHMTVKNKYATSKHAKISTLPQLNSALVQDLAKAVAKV
Assay: General kinase assay (Example 80)
Format: biochemical
Conditions: ATP 1 μM
pIC50: −log10 of the molar value.
experimental_readout: pIC50

Here's what some known entries look like.
cpd_smiles | experimental_readout | result
CNS(=O)(=O)Cc1cccc(Nc2cc(-c3ccccc3OC)ncn2)c1 | pIC50 | > 5.30
COCCNS(=O)(=O)Cc1cccc(Nc2cc(-c3ccccc3OC)ncn2)c1 | pIC50 | > 5.00
COc1ccccc1-c1cc(Nc2cccc(CS(N)(=O)=O)c2)ncn1 | pIC50 | > 5.00

Continue with the compound presented below.
Given the entry `COc1ccccc1-c1cc(Nc2cccc(CS(=O)(=O)N(C)C)c2)ncn1` , what pIC50 was observed with CDK1/CycB (Homo sapiens)? > 5.30

----------
Biological target: CDK6/CycD3 (Homo sapiens)
Sequence (Q00534 whole entry, species assumed): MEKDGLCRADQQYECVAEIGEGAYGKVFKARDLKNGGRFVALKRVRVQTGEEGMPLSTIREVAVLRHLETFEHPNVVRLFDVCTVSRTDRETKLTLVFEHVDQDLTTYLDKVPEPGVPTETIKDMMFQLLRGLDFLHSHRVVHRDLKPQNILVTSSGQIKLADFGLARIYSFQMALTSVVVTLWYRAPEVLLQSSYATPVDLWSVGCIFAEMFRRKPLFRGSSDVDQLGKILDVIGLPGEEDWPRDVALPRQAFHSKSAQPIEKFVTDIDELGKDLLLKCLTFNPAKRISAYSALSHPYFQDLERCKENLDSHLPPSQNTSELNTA
Sequence (P30281 whole entry partner, species assumed): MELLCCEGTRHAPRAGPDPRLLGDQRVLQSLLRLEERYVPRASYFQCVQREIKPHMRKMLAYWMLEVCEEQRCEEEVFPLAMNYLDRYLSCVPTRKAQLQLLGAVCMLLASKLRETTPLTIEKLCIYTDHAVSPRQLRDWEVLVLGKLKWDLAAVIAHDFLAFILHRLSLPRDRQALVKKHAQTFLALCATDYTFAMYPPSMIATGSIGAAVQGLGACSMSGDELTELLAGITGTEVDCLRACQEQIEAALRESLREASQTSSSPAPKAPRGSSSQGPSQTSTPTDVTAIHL
Assay: General kinase assay (Example 80)
Conditions: ATP 1 μM
experimental_readout: IC50

molecule | IC50
CNS(=O)(=O)Cc1cccc(Nc2cc(-c3ccccc3OC)ncn2)c1 [Compound 49] | < 10 µM

Continue with the molecule presented below.
# lookup: IC50 of COc1ccccc1-c1cc(Nc2cccc(CS(N)(=O)=O)c2)ncn1 [Compound 85] < 10 µM

----------
Target: CDK4/CycD1 (Homo sapiens, UniProt P11802)
Sequence (P11802 whole entry, species assumed): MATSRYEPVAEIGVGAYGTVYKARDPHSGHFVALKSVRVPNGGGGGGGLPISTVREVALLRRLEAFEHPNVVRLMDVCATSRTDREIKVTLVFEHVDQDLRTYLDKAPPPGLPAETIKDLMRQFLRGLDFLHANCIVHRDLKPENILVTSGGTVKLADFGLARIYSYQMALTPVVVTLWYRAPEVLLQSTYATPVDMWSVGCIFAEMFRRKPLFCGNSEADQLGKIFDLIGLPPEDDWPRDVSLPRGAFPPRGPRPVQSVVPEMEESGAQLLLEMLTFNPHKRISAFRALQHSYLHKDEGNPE
Sequence (P24385 whole entry partner, species assumed): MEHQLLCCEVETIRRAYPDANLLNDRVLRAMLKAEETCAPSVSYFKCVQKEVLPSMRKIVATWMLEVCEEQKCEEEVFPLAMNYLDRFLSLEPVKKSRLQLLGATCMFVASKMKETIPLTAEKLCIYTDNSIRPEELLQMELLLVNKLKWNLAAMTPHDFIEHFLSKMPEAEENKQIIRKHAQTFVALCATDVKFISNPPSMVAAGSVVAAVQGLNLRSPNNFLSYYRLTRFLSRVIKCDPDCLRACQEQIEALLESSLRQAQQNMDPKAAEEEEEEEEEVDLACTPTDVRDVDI
Test: General kinase assay (Example 80)
Settings: ATP 1 μM
Method: […] IC50s were calculated for each kinase based on serial dilutions.
experimental_readout: IC50

compound | IC50
COCCNS(=O)(=O)Cc1cccc(Nc2cc(-c3ccccc3OC)ncn2)c1 [Compound 86] | > 10 µM
CNS(=O)(=O)Cc1cccc(Nc2cc(-c3ccccc3OC)ncn2)c1 [Compound 49] | < 10 µM

Continue with the compound presented below.
# lookup: IC50 of COc1ccccc1-c1cc(Nc2cccc(CS(N)(=O)=O)c2)ncn1 [Compound 85] < 10 µM

----------
// IC50 lookup, one value per entry
Molecular target: CDK5/p35 (Homo sapiens)
Sequence (Q00535 whole entry): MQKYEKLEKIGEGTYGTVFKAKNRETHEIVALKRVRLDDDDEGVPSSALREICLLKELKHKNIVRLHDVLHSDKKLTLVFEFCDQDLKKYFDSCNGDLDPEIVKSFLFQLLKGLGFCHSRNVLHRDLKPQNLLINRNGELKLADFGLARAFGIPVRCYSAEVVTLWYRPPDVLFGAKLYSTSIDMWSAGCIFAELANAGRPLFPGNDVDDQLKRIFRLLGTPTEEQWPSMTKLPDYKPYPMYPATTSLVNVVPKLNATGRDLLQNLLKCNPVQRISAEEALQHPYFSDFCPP
Sequence (Q15078 whole entry partner): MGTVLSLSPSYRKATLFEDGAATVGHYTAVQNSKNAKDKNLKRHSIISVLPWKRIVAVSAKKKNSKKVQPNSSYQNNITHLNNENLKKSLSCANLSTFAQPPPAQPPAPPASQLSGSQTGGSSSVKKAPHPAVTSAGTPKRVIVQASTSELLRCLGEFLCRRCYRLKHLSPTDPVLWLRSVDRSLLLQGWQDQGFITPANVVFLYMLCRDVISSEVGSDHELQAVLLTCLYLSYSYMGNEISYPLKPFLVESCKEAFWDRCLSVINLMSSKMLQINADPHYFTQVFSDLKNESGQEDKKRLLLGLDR
Assay: General kinase assay (Example 80)
Conditions: ATP 1 μM

Here's what some known entries look like.
molecule | IC50
COc1ccccc1-c1cc(Nc2cccc(CS(N)(=O)=O)c2)ncn1 [Compound 85] | < 5 µM
COCCNS(=O)(=O)Cc1cccc(Nc2cc(-c3ccccc3OC)ncn2)c1 [Compound 86] | < 10 µM
COc1ccccc1-c1cc(Nc2cccc(CS(=O)(=O)N(C)C)c2)ncn1 [Compound 20] | < 5 µM

Continue with the molecule presented below.
# lookup: IC50 of CNS(=O)(=O)Cc1cccc(Nc2cc(-c3ccccc3OC)ncn2)c1 [Compound 49] < 5 µM
